Target under test: Neuronal acetylcholine receptor subunit alpha-7 (Homo sapiens)
Sequence (P36544 whole entry): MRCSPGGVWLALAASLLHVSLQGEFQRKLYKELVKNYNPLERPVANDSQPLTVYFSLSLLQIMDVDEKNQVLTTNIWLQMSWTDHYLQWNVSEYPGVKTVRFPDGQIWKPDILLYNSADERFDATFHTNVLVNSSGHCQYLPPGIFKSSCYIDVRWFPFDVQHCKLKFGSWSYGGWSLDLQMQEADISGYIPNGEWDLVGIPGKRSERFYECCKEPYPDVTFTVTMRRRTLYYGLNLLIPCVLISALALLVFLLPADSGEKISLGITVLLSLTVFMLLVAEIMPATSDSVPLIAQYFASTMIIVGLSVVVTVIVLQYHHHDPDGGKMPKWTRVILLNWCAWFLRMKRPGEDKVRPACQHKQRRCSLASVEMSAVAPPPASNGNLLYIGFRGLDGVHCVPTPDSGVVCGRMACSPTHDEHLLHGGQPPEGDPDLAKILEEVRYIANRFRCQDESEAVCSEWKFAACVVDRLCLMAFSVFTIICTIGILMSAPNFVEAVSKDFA
Test protocol: Antagonist activity at human alpha7 nAChR expressed in Xenopus laevis oocytes assessed as inhibition of ACh-induced inward current at -60 mV holding potential preincubated for 1 min followed by ACh addition by two-microelectrode voltage clamp assay
Assay type: cell-based

{"Compound": "CN1CCCC1c1cncc(-c2cn(CCOCCOCCOCCOCCOCCOCCOCCOCCOCCOCCOCCOCCOCCOCCOCCOCCOCCOCCOCCn3cc(-c4cncc(C5CCCN5C)c4)nn3)nn2)c1 (centres undefined)", "Target under test": "Neuronal acetylcholine receptor subunit alpha-7 (Homo sapiens)", "inhibition": "Dose-dependent effect"}
{"Compound": "CN1CCCC1c1cncc(-c2cn(CCOCCOCCOCCO)nn2)c1 (centres undefined)", "Target under test": "Neuronal acetylcholine receptor subunit alpha-7 (Homo sapiens)", "inhibition": "Dose-dependent effect"}
{"Compound": "CN1CCCC1c1cncc(-c2cn(CCOCCOCCOCCOCCOCCOCCOCCOCCOCCOCCOCCOCCOCCOCCOCCOCCOCCOCCOCCOCCOCCOCCOCCOCCOCCOCCOCCn3cc(-c4cncc(C5CCCN5C)c4)nn3)nn2)c1 (centres undefined)", "Target under test": "Neuronal acetylcholine receptor subunit alpha-7 (Homo sapiens)", "inhibition": "Dose-dependent effect"}
{"Compound": "CN1CCCC1c1cncc(-c2cn(CCOCCOCCOCCn3cc(-c4cncc(C5CCCN5C)c4)nn3)nn2)c1 (centres undefined)", "Target under test": "Neuronal acetylcholine receptor subunit alpha-7 (Homo sapiens)", "inhibition": "Dose-dependent effect"}
